B1: TPR 5TU (parent)
chain: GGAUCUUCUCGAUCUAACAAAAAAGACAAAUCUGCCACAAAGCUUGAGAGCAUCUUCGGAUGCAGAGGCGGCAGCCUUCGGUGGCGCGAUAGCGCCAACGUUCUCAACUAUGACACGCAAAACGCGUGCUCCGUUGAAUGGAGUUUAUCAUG

variants of: B1; assay: polymerase ribozyme fitness, log enrichment relative to wild type (log ratio); higher = more active; in vitro selection for triplet polymerase activity
This sample holds only a part of the variants without activity.
observation type: polymerase ribozyme fitness (log ratio)

Ask | Fill in polymerase ribozyme fitness (log ratio) for record G67U G94C A119C U134G A147C
Reply | ≤ -4.2

Ask | Fill in polymerase ribozyme fitness (log ratio) for record A12U C87A A113U A115C U148A
Reply | ≤ -4.2

Ask | Fill in polymerase ribozyme fitness (log ratio) for record C75A G83A A98U
Reply | -4.16

Ask | Fill in polymerase ribozyme fitness (log ratio) for record A39U A52U C76G G83A
Reply | ≤ -4.2

Ask | Fill in polymerase ribozyme fitness (log ratio) for record C32U C36A U55G C93G G133U G141U
Reply | -4.01

Ask | Fill in polymerase ribozyme fitness (log ratio) for record C8U U15A G58U C69A C85A G124C
Reply | -3.61

Ask | Fill in polymerase ribozyme fitness (log ratio) for record G25U C87U C93G A138U
Reply | ≤ -4.2

Ask | Fill in polymerase ribozyme fitness (log ratio) for record G126C A150G
Reply | -2.81

Ask | Fill in polymerase ribozyme fitness (log ratio) for record A47G U55A A91G
Reply | -2.78

Ask | Fill in polymerase ribozyme fitness (log ratio) for record G58C A66G G140U
Reply | ≤ -4.2

Ask | Fill in polymerase ribozyme fitness (log ratio) for record A37C A47C G88A G100A A137U
Reply | ≤ -4.2

Ask | Fill in polymerase ribozyme fitness (log ratio) for record G50U C75G G86U C87A A89U
Reply | ≤ -4.2

Ask | Fill in polymerase ribozyme fitness (log ratio) for record A12C U15G U56A C75U G86U C129A G133U
Reply | ≤ -4.2

Ask | Fill in polymerase ribozyme fitness (log ratio) for record A3C G58C C63U C95G
Reply | -1.68

Ask | Fill in polymerase ribozyme fitness (log ratio) for record C87U C118U G143C
Reply | -2.54

Ask | Fill in polymerase ribozyme fitness (log ratio) for record U15G A21U A39G A47G G83A A142G
Reply | -3.92

Ask | Fill in polymerase ribozyme fitness (log ratio) for record A22U A30G G46C G50C A52C U55G C72U U82A C87A G88C U90A C99U
Reply | ≤ -4.2

Ask | Fill in polymerase ribozyme fitness (log ratio) for record U53A C57A C69G A91C
Reply | ≤ -4.2

Ask | Fill in polymerase ribozyme fitness (log ratio) for record U31A G50C C85U
Reply | -3.83

Ask | Fill in polymerase ribozyme fitness (log ratio) for record C18U G34U G70A C85U C87U A91C G117A
Reply | ≤ -4.2

Ask | Fill in polymerase ribozyme fitness (log ratio) for record A20U U61G C87U C95U
Reply | -3.33

Ask | Fill in polymerase ribozyme fitness (log ratio) for record G50C C69A C75U
Reply | ≤ -4.2

Ask | Fill in polymerase ribozyme fitness (log ratio) for record U56G G84U C85A C99U
Reply | ≤ -4.2

Ask | Fill in polymerase ribozyme fitness (log ratio) for record G58A G117U
Reply | 1.04

Ask | Fill in polymerase ribozyme fitness (log ratio) for record A19G A49C C54A G68A C93A C95A C103U G124A
Reply | ≤ -4.2

Ask | Fill in polymerase ribozyme fitness (log ratio) for record C57G A98U
Reply | -0.592

Ask | Fill in polymerase ribozyme fitness (log ratio) for record U61A C75G
Reply | -3.89

Ask | Fill in polymerase ribozyme fitness (log ratio) for record C14A A26U G46A C85U C105A A113G C114A G128A A147G
Reply | ≤ -4.2

Ask | Fill in polymerase ribozyme fitness (log ratio) for record C8A A26U A37C G59A C93U
Reply | ≤ -4.2

Ask | Fill in polymerase ribozyme fitness (log ratio) for record C87U A107U
Reply | -3.34

Ask | Fill in polymerase ribozyme fitness (log ratio) for record C32G A49U G65U C93U C99G A110U A147U
Reply | ≤ -4.2

Ask | Fill in polymerase ribozyme fitness (log ratio) for record C96G U102C A121G G141A A150G
Reply | -4.15

Ask | Fill in polymerase ribozyme fitness (log ratio) for record C8G A24U A29G C54G C57U G94A A98G U135G
Reply | ≤ -4.2

Ask | Fill in polymerase ribozyme fitness (log ratio) for record C38U G50A A52U G68U G80A A97G A137U
Reply | ≤ -4.2

Ask | Fill in polymerase ribozyme fitness (log ratio) for record A17C G84C A142G
Reply | -3.21

Ask | Fill in polymerase ribozyme fitness (log ratio) for record C27U U31C A52C U78C U101A C125G
Reply | ≤ -4.2

Ask | Fill in polymerase ribozyme fitness (log ratio) for record A40U A52G C132G
Reply | -3.47

Ask | Fill in polymerase ribozyme fitness (log ratio) for record U7C C18U U61C C69A C93A C114U
Reply | ≤ -4.2

Ask | Fill in polymerase ribozyme fitness (log ratio) for record A39C U53G C85U
Reply | -4.06

Ask | Fill in polymerase ribozyme fitness (log ratio) for record C57G G68U G94U C116G
Reply | ≤ -4.2

Ask | Fill in polymerase ribozyme fitness (log ratio) for record A24G U33G C87U U101G G140C
Reply | ≤ -4.2

Ask | Fill in polymerase ribozyme fitness (log ratio) for record C38A C57G U77G C79U A91G
Reply | ≤ -4.2

Ask | Fill in polymerase ribozyme fitness (log ratio) for record A40C C131G
Reply | -3.13

Ask | Fill in polymerase ribozyme fitness (log ratio) for record G84U A106C
Reply | -2.1

Ask | Fill in polymerase ribozyme fitness (log ratio) for record A19C G65C C69G C85U C87G U102G A121G G124A U139G
Reply | ≤ -4.2

Ask | Fill in polymerase ribozyme fitness (log ratio) for record A64U C87U G100C U135G A150G
Reply | ≤ -4.2

Ask | Fill in polymerase ribozyme fitness (log ratio) for record C51G G58C
Reply | -1.42

Ask | Fill in polymerase ribozyme fitness (log ratio) for record A19U A20G A66G G80A C87A A107G A110C
Reply | ≤ -4.2

Ask | Fill in polymerase ribozyme fitness (log ratio) for record A20C G59A G81C G86C
Reply | -3.14

Ask | Fill in polymerase ribozyme fitness (log ratio) for record G86U C149A
Reply | ≤ -4.2

Ask | Fill in polymerase ribozyme fitness (log ratio) for record A30C C76A G83C
Reply | ≤ -4.2

Ask | Fill in polymerase ribozyme fitness (log ratio) for record A28U A64G A66U A73U G81U C95U C114U C149A
Reply | ≤ -4.2

Ask | Fill in polymerase ribozyme fitness (log ratio) for record A19G A23G G67C C87U
Reply | ≤ -4.2

Ask | Fill in polymerase ribozyme fitness (log ratio) for record A16G G94U C95A U134G
Reply | -3.52

Ask | Fill in polymerase ribozyme fitness (log ratio) for record A26U G46U
Reply | -3.87

Ask | Fill in polymerase ribozyme fitness (log ratio) for record C118G A122C
Reply | -1.49

Ask | Fill in polymerase ribozyme fitness (log ratio) for record A52C C96U U130A U144G A147C
Reply | -3.6

Ask | Fill in polymerase ribozyme fitness (log ratio) for record G11U A17G C57U C63U G81A U82G
Reply | -1.64

Ask | Fill in polymerase ribozyme fitness (log ratio) for record A16G G25U A150G
Reply | -3.86

Ask | Fill in polymerase ribozyme fitness (log ratio) for record A60C C85A C116A
Reply | -1.6

Ask | Fill in polymerase ribozyme fitness (log ratio) for record C85A C103G A147U
Reply | -2.48

Ask | Fill in polymerase ribozyme fitness (log ratio) for record C54U C105A C131G
Reply | ≤ -4.2

Ask | Fill in polymerase ribozyme fitness (log ratio) for record C8U A22U U56A A73G A121G C123U
Reply | -4.16

Ask | Fill in polymerase ribozyme fitness (log ratio) for record C18A A52G C87A G92C C95A U104A
Reply | ≤ -4.2

Ask | Fill in polymerase ribozyme fitness (log ratio) for record C85G U144A A150U
Reply | -3.7

Ask | Fill in polymerase ribozyme fitness (log ratio) for record A16G C116A
Reply | 0.283

Ask | Fill in polymerase ribozyme fitness (log ratio) for record U56G U135G
Reply | -3.68

Ask | Fill in polymerase ribozyme fitness (log ratio) for record U15G G50C C69U C76A G84U
Reply | ≤ -4.2

Ask | Fill in polymerase ribozyme fitness (log ratio) for record U15G A49C G50A U78A A91C C93A G126U
Reply | ≤ -4.2

Ask | Fill in polymerase ribozyme fitness (log ratio) for record G42A G59A G92A G100A C125A U146C
Reply | ≤ -4.2

Ask | Fill in polymerase ribozyme fitness (log ratio) for record A12G A60G C93U
Reply | -0.294

Ask | Fill in polymerase ribozyme fitness (log ratio) for record G83A C118A C129A
Reply | -3.64

Ask | Fill in polymerase ribozyme fitness (log ratio) for record A12C U33A G48C U127G G140C
Reply | ≤ -4.2

Ask | Fill in polymerase ribozyme fitness (log ratio) for record A17C C38A A47G G92C
Reply | -0.622

Ask | Fill in polymerase ribozyme fitness (log ratio) for record A19C C27A A47C G58A G59A A91G C123A
Reply | ≤ -4.2

Ask | Fill in polymerase ribozyme fitness (log ratio) for record G92A U127A
Reply | -3.83

Ask | Fill in polymerase ribozyme fitness (log ratio) for record C131G A137U
Reply | -4.16

Ask | Fill in polymerase ribozyme fitness (log ratio) for record U44G G58C C87G
Reply | ≤ -4.2

Ask | Fill in polymerase ribozyme fitness (log ratio) for record A39U U45C C93U
Reply | ≤ -4.2

Ask | Fill in polymerase ribozyme fitness (log ratio) for record U82G C85U A107U
Reply | -3.59

Ask | Fill in polymerase ribozyme fitness (log ratio) for record A12G A22C A66U C69U G92A
Reply | ≤ -4.2

Ask | Fill in polymerase ribozyme fitness (log ratio) for record U55A C85A C105U U134A
Reply | ≤ -4.2

Ask | Fill in polymerase ribozyme fitness (log ratio) for record C10G A26U A28C C87A G88U A91C U145C
Reply | ≤ -4.2

Ask | Fill in polymerase ribozyme fitness (log ratio) for record U31C A121C U134A
Reply | -1.76

Ask | Fill in polymerase ribozyme fitness (log ratio) for record U78G C114U C125A C149U
Reply | ≤ -4.2

Ask | Fill in polymerase ribozyme fitness (log ratio) for record G48C C96U A110G
Reply | ≤ -4.2

Ask | Fill in polymerase ribozyme fitness (log ratio) for record A16G C18U C27U A28U A40C G50C U56A G84C C125A G143A U146G
Reply | ≤ -4.2

Ask | Fill in polymerase ribozyme fitness (log ratio) for record C8A G50U
Reply | -3.79

Ask | Fill in polymerase ribozyme fitness (log ratio) for record U13G A28U A64C G68A C79U
Reply | ≤ -4.2

Ask | Fill in polymerase ribozyme fitness (log ratio) for record U53A A97C
Reply | -0.583

Ask | Fill in polymerase ribozyme fitness (log ratio) for record A22C A28U G58C A91C
Reply | ≤ -4.2
